Target System: T1, Notch2NRR (Notch2 NRR domain) (human, UniProt Q04721 1423-1677, biotin on the N-terminal Avi tag (enzymatic))
T1 construct: also called NRR protein; not shown: Avi tag, N-terminal, kept
T1 sequence (looked up): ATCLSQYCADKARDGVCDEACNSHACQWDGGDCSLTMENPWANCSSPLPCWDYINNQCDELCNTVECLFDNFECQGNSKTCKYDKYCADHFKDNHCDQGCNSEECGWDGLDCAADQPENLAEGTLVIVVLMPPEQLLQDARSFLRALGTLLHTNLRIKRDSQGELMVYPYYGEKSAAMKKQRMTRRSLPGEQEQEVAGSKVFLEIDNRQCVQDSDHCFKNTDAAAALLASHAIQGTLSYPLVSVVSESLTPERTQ
Assay Details: ELISA
Test Context: one partner purified
Class Fulfilled: s/n Ratio at least 30. Class Not fulfilled: s/n Ratio below 30.

INSERT INTO measurements (binder, class) VALUES
  ('GCQQRRWGGWQQCKQDSDCLAGCVCGPNGFCG (designed binder) [N2N-EET-33 displayed on M13 phage]', 'Not fulfilled'),
  ('GCRPRFKGWTCKQDSDCLAGCVCGPNGFCG (designed binder) [N2N-EET-n3 displayed on M13 phage]', 'Fulfilled'),
  ('GCGQKRMGGWQWCKQDSDCLAGCVCGPNGFCG (designed binder) [N2N-EET-n13 displayed on M13 phage]', 'Fulfilled'),
  ('GCGQQRWGGWPLCKQDSDCLAGCVCGPNGFCG (designed binder) [N2N-EET-45 displayed on M13 phage]', 'Not fulfilled'),
  ('GCMPRYGGWHCKQDSDCLAGCVCGPNGFCG (designed binder) [N2N-EET-63 displayed on M13 phage]', 'Not fulfilled');
